Can you tell me IC50 for the items I'm about to list?
target: BIR2 domain of XIAP (Homo sapiens (Human), UniProt P98170, C202A/C213G); assay: TR-FRET assay for BIR2: inhibition of binding of XIAP BIR2 domain to Peptide A (SMAC-derived peptide)
Sequence (P98170 124-240 C202A/C213G): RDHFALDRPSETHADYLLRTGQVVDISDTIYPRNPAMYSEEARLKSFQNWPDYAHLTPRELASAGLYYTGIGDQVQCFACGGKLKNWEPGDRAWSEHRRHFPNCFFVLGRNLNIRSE
Where a name gives a salt, the structure may show the parent alone.
Enter your answer as a number in nM; do not include the unit.

Sure, the documented IC50 for CN[C@@H](C)C(=O)N[C@@H]1C(=O)N(Cc2noc3cc(Br)ccc23)c2ccccc2N(C(=O)CS(C)(=O)=O)[C@H]1C [Example 41, 2,2,2-trifluoroacetate] is 416

Sure, the documented IC50 for CN[C@@H](C)C(=O)N[C@@H]1C(=O)N(Cc2nn(-c3ccccc3C#N)c3ccccc23)c2ccc(C#N)cc2N(C(=O)CS(C)(=O)=O)[C@H]1C [Example 53, 2,2,2-trifluoroacetate] is 33

Sure, the documented IC50 for CN[C@@H](C)C(=O)N[C@@H]1C(=O)N(Cc2ccnc3ccccc23)c2ccccc2N(C(=O)CS(C)(=O)=O)[C@H]1C [Example 16, hydrochloride] is 179

Sure, the documented IC50 for CN[C@@H](C)C(=O)N[C@@H]1C(=O)N(Cc2c(C)cnc3ccccc23)c2ccccc2N(C(C)=O)[C@H]1C [Example 20, dihydrochloride] is 55

Sure, the documented IC50 for CCN[C@@H](C)C(=O)N[C@@H]1C(=O)N(Cc2c(C)ccc3ccccc23)c2ccc(C#N)cc2N(C(=O)CS(C)(=O)=O)[C@H]1C [Example 28, hydrochloride] is 75

Sure, the documented IC50 for CN[C@@H](C)C(=O)N[C@@H]1C(=O)N(Cc2cc(=O)oc3cc(Cl)ccc23)c2ccccc2N(C(=O)CS(C)(=O)=O)[C@H]1C [Example 40, 2,2,2-trifluoroacetate] is 354

###

Can you tell me pIC50 for the items I'm about to list?
target: BIR3 domain of XIAP (Homo sapiens (Human), UniProt P98170); experiment: TR-FRET assay for BIR3: inhibition of binding of XIAP BIR3 domain to Peptide A (SMAC-derived peptide)
Sequence (P98170 241-356): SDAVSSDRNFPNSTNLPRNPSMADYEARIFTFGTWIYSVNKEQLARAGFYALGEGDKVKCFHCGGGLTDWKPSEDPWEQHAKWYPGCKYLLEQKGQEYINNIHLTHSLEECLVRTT
pIC50: −log10 of the molar value. Where a name gives a salt, the structure may show the parent alone.

Here CN[C@@H](C)C(=O)N[C@@H]1C(=O)N(Cc2ccnc3ccccc23)c2ccccc2N(C(=O)CS(C)(=O)=O)[C@H]1C [Example 16, hydrochloride] was tested on BIR3 domain of XIAP (Homo sapiens (Human), UniProt P98170), and its pIC50 came to < 4.26

Here CN[C@@H](C)C(=O)N[C@@H]1C(=O)N(Cc2cc(=O)oc3cc(Cl)ccc23)c2ccccc2N(C(=O)CS(C)(=O)=O)[C@H]1C [Example 40, 2,2,2-trifluoroacetate] was tested on BIR3 domain of XIAP (Homo sapiens (Human), UniProt P98170), and its pIC50 came to < 4.26

Here CCN[C@@H](C)C(=O)N[C@@H]1C(=O)N(Cc2c(C)ccc3ccccc23)c2ccc(C#N)cc2N(C(=O)CS(C)(=O)=O)[C@H]1C [Example 28, hydrochloride] was tested on BIR3 domain of XIAP (Homo sapiens (Human), UniProt P98170), and its pIC50 came to < 4.26
